molecular target: Voltage-gated inwardly rectifying potassium channel KCNH2 (Homo sapiens); assay: Inhibition of human ERG expressed in HEK293 cells by whole cell patch clamp method
Sequence (Q12809 whole entry): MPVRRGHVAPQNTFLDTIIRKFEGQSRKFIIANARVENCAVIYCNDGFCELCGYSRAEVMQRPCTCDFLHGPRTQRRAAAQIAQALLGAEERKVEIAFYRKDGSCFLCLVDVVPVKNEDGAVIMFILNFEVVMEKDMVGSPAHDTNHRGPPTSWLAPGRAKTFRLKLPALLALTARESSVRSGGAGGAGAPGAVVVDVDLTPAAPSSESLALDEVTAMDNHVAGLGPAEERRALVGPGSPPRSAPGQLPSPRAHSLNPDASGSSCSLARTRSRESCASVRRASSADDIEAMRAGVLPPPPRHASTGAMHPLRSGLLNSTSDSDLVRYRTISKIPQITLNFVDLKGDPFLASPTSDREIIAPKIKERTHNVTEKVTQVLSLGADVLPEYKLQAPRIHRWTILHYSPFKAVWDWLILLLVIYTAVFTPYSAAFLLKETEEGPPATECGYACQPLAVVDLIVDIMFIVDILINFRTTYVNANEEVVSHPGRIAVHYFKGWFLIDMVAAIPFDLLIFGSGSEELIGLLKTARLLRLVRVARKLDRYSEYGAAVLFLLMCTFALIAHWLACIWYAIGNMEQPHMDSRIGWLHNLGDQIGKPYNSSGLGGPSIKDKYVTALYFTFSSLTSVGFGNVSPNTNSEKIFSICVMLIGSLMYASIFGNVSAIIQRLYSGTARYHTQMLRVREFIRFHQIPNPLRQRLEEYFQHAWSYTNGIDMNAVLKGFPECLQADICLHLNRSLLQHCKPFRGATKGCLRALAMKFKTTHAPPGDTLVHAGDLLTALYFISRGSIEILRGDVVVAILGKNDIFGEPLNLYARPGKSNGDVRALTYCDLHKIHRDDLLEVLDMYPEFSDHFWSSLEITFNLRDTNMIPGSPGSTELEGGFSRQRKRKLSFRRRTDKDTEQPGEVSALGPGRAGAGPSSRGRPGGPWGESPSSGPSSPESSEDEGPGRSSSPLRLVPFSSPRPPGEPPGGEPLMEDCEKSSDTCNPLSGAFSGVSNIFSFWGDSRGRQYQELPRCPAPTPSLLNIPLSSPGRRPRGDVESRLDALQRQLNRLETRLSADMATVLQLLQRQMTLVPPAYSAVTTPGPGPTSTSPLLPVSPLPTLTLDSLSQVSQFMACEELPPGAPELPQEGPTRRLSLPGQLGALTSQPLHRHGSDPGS
pIC50: −log10 of the molar value.

- compound: "CCOc1cc(N)c(Cl)cc1C(=O)NCC1CN(Cc2ccc(F)cc2)CCO1 (stereo unspecified) [MOSAPRIDE]"
  pIC50: 5.32

###

Reported IC50 values for the following compounds.
test: Inhibition of human ERG td[wt:Y652A] mutant expressed in HEK293 cells by whole cell patch clamp method; assay type: cell-based
reported_property: IC50 (nM)

- compound: "COc1cc(N)c(Cl)cc1C(=O)NC1CCN(CCCOc2ccc(F)cc2)CC1OC (stereo not drawn) [CISAPRIDE]"
  value_observed: 180
- compound: "CC(C)(C)c1ccc(C(O)CCCN2CCC(C(O)(c3ccccc3)c3ccccc3)CC2)cc1 (stereo not drawn) [TERFENADINE]"
  value_observed: 30
- compound: "Cc1cccc(CCN2CCC(C(=O)c3ccc(NS(C)(=O)=O)cc3)CC2)n1"
  value_observed: 250
